test system: SN12C renal; test: NCI-60 one-dose screen, 48 h; settings: 10 µM unless noted
About 83,000 compounds went through this panel and 20% of them were active in at least one assay; those are over-represented in the sample as a whole. Active and inactive are the calls of the source. Rule for the calls: active = growth percent below 10; inactive = the rest.
The reply should name one outcome from 1 for active, 0 for inactive

[Q] Tell me the recorded outcome of this test for COc1ccc2c3ccnc(C(F)(F)F)c3n(CCCCN)c2c1 .
[A] 0

[Q] Tell me the recorded outcome of this test for C[C@]12CCc3c(ccc4cc(O)ccc34)[C@@H]1CC[C@H]2O .
[A] 0

[Q] Tell me the recorded outcome of this test for C=CCCCCOc1ccccc1-c1cnc(OCCCCC=C)n1C .
[A] 0

[Q] Tell me the recorded outcome of this test for CCOc1ccc(S(=O)(=O)Nc2ccc3c(c2)N(S(=O)(=O)CC)CCC3)cc1 .
[A] 0

[Q] Tell me the recorded outcome of this test for Clc1ccc(N2CCN(CCCN3CCN(c4cccc(Cl)c4)CC3)CC2)cc1 .
[A] 0

[Q] Tell me the recorded outcome of this test for CN(C)C(=S)Sc1ccc([N+](=O)[O-])cc1[N+](=O)[O-] .
[A] 0
